Can you tell me PARP activity, % of control brain for the items I'm about to list?
test system: poly-(ADP-ribose)-polymerase; experiment: PARP activity in myocardium and brain at acute hypobaric hypoxia with hypercapnia; type: in vivo; settings: 100 mg/kg intravenously 15 minutes prior to the experiment; brain

Recorded PARP activity, % of control brain, per entry:
| compound | reported_value |
| --- | --- |
| O=C(O)CCC(=O)O | 325±20 % of control |
| O=C([O-])CCCO.[Li+] [Lithium oxybutyrate] | 300±82 % of control |
| OC[C@H]1O[C@@H](n2cnc3c(O)ncnc32)[C@H](O)[C@@H]1O | 242±24 % of control |

Your task in this section: give PARP activity, % of control brain for each listed record.
1. NC(=S)N=C(N)N
2. CCc1nc(C)ccc1O.O=C(O)CCC(=O)O [3-oxy-3-methyl-6-oxypyridine succinate]

Found:
1. 290±83 % of control
2. 317±21 % of control
